- Test system: UACC-257 melanoma
- protocol.description: NCI-60 one-dose screen, 48 h (100 = growth as untreated, 0 = no growth, -100 = all killed)
- recorded.conditions: 10 µM unless noted
This is part of a sample that, as a whole, favours compounds with a hit. Of some 83,000 tested, about 20% had one in any assay.
measured.parameter: growth (%)

INSERT INTO results (compound, tgt, units_label, endpoint_result) VALUES
  ('CNCc1cccnc1', 'UACC-257 melanoma', '%', 105),
  ('CC1=C(CN)C2=C(C)C3(CC3)[C@@](C)(O)C(=O)C2=C1', 'UACC-257 melanoma', '%', 87.2),
  ('COC(=O)[C@@H](C)C[C@H](Cc1ccccc1)NC(=O)c1csc([C@@H](C[C@H](C(C)C)N(C)C(=O)[C@@H](NC(=O)[C@H]2CCCCN2C)c2ccc(F)cc2)OC(C)=O)n1', 'UACC-257 melanoma', '%', 53.2),
  ('CC1[C@H](C)OC(=O)CC(O)CC(O)CC(O)CCC(O)C(O)C[C@]2(O)CC(O)C(C(=O)O)C(CC(OC3O[C@H](C)[C@@H](O)[C@H](N)[C@@H]3O)/C=C/C=C/C=C/C=C/CC/C=C/C=C/[C@H](C)[C@H]1O)O2 (stereo partly specified)', 'UACC-257 melanoma', '%', 101),
  ('CC[C@H](C)[C@H](NC(=O)c1cccn1C)C(=O)N(C)[C@H](C[C@@H](OC(C)=O)c1nc(C(=O)N[C@@H](Cc2ccccc2)C[C@H](C)C(=O)OC)cs1)C(C)C', 'UACC-257 melanoma', '%', 51.8),
  ('O=P1(NCCCl)OCCCN1CCCl (stereo unspecified)', 'UACC-257 melanoma', '%', 116),
  ('C=CC[n+]1ccc(-c2cc[n+](CC=C)cc2)cc1', 'UACC-257 melanoma', '%', 96.9),
  ('C/C(Cc1ccc(Cl)cc1)=C(\c1ccc(OCCN2CCOCC2)cc1)c1ccc(OC(=O)Cc2ccccc2)cc1', 'UACC-257 melanoma', '%', 86.1),
  ('CC12CCC3C(CCC4=CC(=O)CCC43CF)C1CCC2=O (stereo unspecified)', 'UACC-257 melanoma', '%', 97),
  ('C#Cc1ccc2c(c1)C(c1ccccc1F)=NCC(=O)N2C', 'UACC-257 melanoma', '%', 67.1),
  ('C/C(=C\c1cc(C(F)(F)F)nn1CCNC(=O)OC(C)(C)C)[C@@H]1C[C@@H]2O[C@]2(C)CCC[C@H](C)[C@H](O)[C@@H](C)C(=O)C(C)(C)[C@@H](O)CC(=O)O1', 'UACC-257 melanoma', '%', 83.5),
  ('N#Cc1c(Br)n(C2OC(CO)C(O)C2O)c2ncnc(N)c12 (stereo unspecified)', 'UACC-257 melanoma', '%', 80.3),
  ('CC[C@H](C)[C@H](NC(=O)[C@H]1CCCCN1C)C(=O)N(C)[C@H](C[C@@H](O)c1nc(C(=O)N[C@@H](Cc2ccccc2)C[C@H](C)C(=O)O)cs1)C(C)C', 'UACC-257 melanoma', '%', 76.1),
  ('C/C(=C\c1ccn(-c2ccc(N)cc2C(F)(F)F)n1)[C@@H]1C[C@@H]2O[C@]2(C)CCC[C@H](C)[C@H](O)[C@@H](C)C(=O)C(C)(C)[C@@H](O)CC(=O)O1', 'UACC-257 melanoma', '%', 37.9),
  ('Cc1cc(-c2nc3cc(F)ccc3[se]2)cc(F)c1N', 'UACC-257 melanoma', '%', 98.5),
  ('COc1ccc(O)c(CNC(=O)CN2CCCC2=O)c1', 'UACC-257 melanoma', '%', 104);
